biological target: Ba/F3-KDR-transfected cells (Homo sapiens, UniProt P35968); construct: BAF3-KDR (MIN IL3) pIC50; other: minus IL3; test: Ba/F3-KDR (minus IL3) cellular proliferation assay, Alamar Blue; format: cell-based
Sequence (P35968 whole entry, change not shown): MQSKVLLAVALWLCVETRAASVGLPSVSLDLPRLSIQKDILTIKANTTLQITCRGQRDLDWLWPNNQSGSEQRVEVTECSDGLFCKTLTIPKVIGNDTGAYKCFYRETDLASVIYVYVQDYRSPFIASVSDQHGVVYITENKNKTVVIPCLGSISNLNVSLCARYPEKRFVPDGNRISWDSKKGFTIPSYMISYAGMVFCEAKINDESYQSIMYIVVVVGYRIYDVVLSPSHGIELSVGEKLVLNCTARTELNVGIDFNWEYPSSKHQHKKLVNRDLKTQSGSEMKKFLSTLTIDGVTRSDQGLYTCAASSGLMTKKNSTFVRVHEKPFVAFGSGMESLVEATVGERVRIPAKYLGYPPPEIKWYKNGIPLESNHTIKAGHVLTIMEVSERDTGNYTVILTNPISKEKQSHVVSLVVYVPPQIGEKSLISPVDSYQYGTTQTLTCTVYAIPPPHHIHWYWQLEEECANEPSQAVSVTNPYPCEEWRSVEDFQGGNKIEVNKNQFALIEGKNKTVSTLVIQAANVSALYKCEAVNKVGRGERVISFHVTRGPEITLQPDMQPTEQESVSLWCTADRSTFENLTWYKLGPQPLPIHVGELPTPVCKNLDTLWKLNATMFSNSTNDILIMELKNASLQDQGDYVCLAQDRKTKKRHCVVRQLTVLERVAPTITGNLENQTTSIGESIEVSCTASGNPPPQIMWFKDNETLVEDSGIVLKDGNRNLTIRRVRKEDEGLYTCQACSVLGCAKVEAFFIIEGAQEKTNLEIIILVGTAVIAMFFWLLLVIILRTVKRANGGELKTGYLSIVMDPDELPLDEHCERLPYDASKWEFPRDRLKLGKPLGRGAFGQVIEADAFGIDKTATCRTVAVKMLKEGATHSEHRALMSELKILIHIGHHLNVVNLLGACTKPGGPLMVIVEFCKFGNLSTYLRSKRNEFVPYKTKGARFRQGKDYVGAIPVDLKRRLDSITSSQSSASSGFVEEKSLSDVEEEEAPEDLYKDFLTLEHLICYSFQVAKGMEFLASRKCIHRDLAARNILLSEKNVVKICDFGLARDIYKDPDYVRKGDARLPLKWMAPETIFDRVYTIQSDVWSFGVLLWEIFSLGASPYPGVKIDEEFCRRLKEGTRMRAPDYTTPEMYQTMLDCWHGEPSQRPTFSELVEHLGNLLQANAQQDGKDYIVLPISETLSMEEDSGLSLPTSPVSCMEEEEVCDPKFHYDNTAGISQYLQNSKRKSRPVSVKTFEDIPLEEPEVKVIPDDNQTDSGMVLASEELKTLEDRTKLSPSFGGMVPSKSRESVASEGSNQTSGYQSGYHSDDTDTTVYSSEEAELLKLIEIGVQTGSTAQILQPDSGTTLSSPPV
Task for the reader: assign each of the following molecules its reported BAF3-KDR (MIN IL3) pIC50.
Answers are plain numbers.

What measured BAF3-KDR (MIN IL3) pIC50 goes with COc1cc(OC)c(F)c(N(CCCO)c2ccc3ncc(-c4cnn(C)c4)nc3n2)c1F (single isomer, unassigned) ? 6.2

For the next question, use this molecule.
What measured BAF3-KDR (MIN IL3) pIC50 goes with `COc1cc(OC)c(F)c(N(Cc2ncc[nH]2)c2ccc3ncc(-c4cnn(Cc5ncc[nH]5)c4)nc3n2)c1` ? 5.41
